// reported IC50 for each item listed
Test system: EBOV
Test: microbe, parasite or virus in culture
Format: cell-based, Ebola Zaire
Settings: Zaire ebolavirus, 10 min, read-out: IC50 EBOV
Numbers only here, please. The scale is nM.

1) CCN1C(=S)O/C(=C\c2ccc(-c3ccccc3OC)o2)C1=S [JL103] :: 185

Let us move to another entry and its IC50.
Please give measured IC50 of the following entry: C=CCN1C(=O)/C(=C/c2ccc(-c3ccccc3)o2)SC1=S [LJ001]
900

---

Assay: Pharmacokinetics in mice
Details: female, Balb/c, mouse, in vivo, po, 10 mg/kg
reported_endpoint: AUC(0-t) (ng·h/mL)
Write it as a number; the unit ng·h/mL goes unstated.

Worked examples, 2 molecules total:
1) CCN1C(=S)O/C(=C\c2ccc(-c3ccc(N(C)C)cc3)o2)C1=S :: 1350
2) CCN1C(=S)O/C(=C\c2ccc(-c3ccc(OC)cc3OC)o2)C1=S :: 354

Now consider a different molecule.
Specify measured AUC(0-t) for `CCN1C(=S)O/C(=C\c2ccc(-c3c(OC)cc(OC)cc3OC)o2)C1=S` .
232
